# Test system: C. elegans VP596 Pgst-4::GFP/RFP ratio, acrylamide, 24 h
# assay summary: inhibition of acrylamide-induced Pgst-4::GFP reporter, dose response, SKN-1 inhibitor project, whole organism, GFP/RFP fluorescence ratio, set 2, strain VP596 (AID 651563);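 also: red signal is driven by the dop-3 promoter and serves as the normalizer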
Calls of active or inactive are those of the source.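 The calls were made as follows: active = compounds whose IC50 is 20 micromolar or lower, counted as confirmed SKN-1 reporter blockers; inactive = the rest.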
The reply should name one outcome from active, inactive

O=C(NC(=S)Nc1ccc(CN2CCCCC2)cc1)c1cc2ccccc2o1 = inactive
Cc1ccccc1-c1noc(-c2cccs2)n1 = active
O=C(Nc1nc(-c2ccc(Cl)s2)cs1)c1ccco1 = active
O=C(Nc1ccc(CN2CCOCC2)cc1)c1cc2ccccc2o1 = active
c1ccc(N2CCN(c3cnc4ccccc4n3)CC2)cc1 = inactive
O=C1/C(=C/c2ccccc2)CCCc2ccccc21 = inactive

Incoming: Hello, I am checking results. What call was entered for Clc1ccc(-n2nnc(-c3cccnc3)n2)cc1Cl ?
Outgoing: inactive

Incoming: For Cc1ccc(-c2noc(-c3cccs3)n2)cc1 , what call appears in the results of this test?
Outgoing: active

Incoming: What was the test verdict on O=C(/C=C/c1ccc(Cl)cc1)Nc1ccc(CN2CCOCC2)cc1 ?
Outgoing: inactive

Incoming: # fetch the recorded call for O=C1NC2C(=CC(O)C(O)C2O)c2cc3c(cc21)OCO3 (stereo unspecified) here
Outgoing: inactive

Incoming: Record lookup: outcome of this test for O=C(/C=C/Nc1ccc(F)cc1F)c1ccco1 ?
Outgoing: inactive

Incoming: What classification did O=C(/C(C=Nc1ccc(Br)cc1)=C(/O)c1ccco1)C(F)(F)F end up with in this test?
Outgoing: inactive

Incoming: Hi team, can someone confirm the assay call for Cc1nc2ccccc2cc1OCc1ccc(Cl)cc1 ?
Outgoing: inactive

###

Form field: IC50 (one value per entry).
# Tested on: C. elegans VP596 Pgst-4::GFP/RFP ratio, acrylamide, 24 h
# assay summary: inhibition of acrylamide-induced Pgst-4::GFP reporter, dose response, SKN-1 inhibitor project, whole organism, GFP/RFP fluorescence ratio, set 2, strain VP596 (AID 651563);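 also: red signal is driven by the dop-3 promoter and serves as the normalizer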
The source made the active and inactive calls.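 Rule for the calls: active = compounds whose IC50 is 20 micromolar or lower, counted as confirmed SKN-1 reporter blockers; inactive = the rest.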

Lab book: IC50 of CCOc1cc(CNC2CCCC2)cc(Cl)c1OCc1ccccc1 noted as 22.4 µM (inactive)

###

# System: C. elegans VP596 Pgst-4::GFP/RFP ratio, acrylamide, 24 h
# assay summary: inhibition of acrylamide-induced Pgst-4::GFP reporter, dose response, SKN-1 inhibitor project, whole organism, GFP/RFP fluorescence ratio, set 2, strain VP596 (AID 651563);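 also: red signal is driven by the dop-3 promoter and serves as the normalizer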
Calls of active or inactive are those of the source.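 How the source made its calls: active means compounds whose IC50 is 20 micromolar or lower, counted as confirmed SKN-1 reporter blockers; inactive means the rest.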
experimental endpoint: IC50

N=C1C=CC(=C(c2ccc(N)cc2)c2ccc(N)cc2)C=C1 = 20.2 µM (inactive)
C(=C\c1ccc2ccccc2n1)/c1ccccc1 = > 100 µM (inactive)

Turning now to a further compound:
For record O=C(Nc1nc(SCc2ccc(F)cc2)ns1)c1ccco1 the listed IC50 is > 100 µM (inactive)

###

# System: C. elegans VP596 Pgst-4::GFP/RFP ratio, acrylamide, 24 h
# assay summary: inhibition of acrylamide-induced Pgst-4::GFP reporter, dose response, SKN-1 inhibitor project, whole organism, GFP/RFP fluorescence ratio, set 2, strain VP596 (AID 651563);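 also: red signal is driven by the dop-3 promoter and serves as the normalizer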
The source made the active and inactive calls.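 How the source made its calls: active means compounds whose IC50 is 20 micromolar or lower, counted as confirmed SKN-1 reporter blockers; inactive means the rest.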
experimental endpoint: IC50

Consider the reported IC50 for these compounds:
Fc1ccc(-c2cnc(-c3cccs3)o2)cc1 = 27.5 µM (inactive)
Clc1cccc(CSc2ncn(-c3ccccc3)n2)c1 = 37.5 µM (inactive)
Fc1ccc(Cn2nnc(-c3ccc(CN4CCOCC4)cc3)n2)cc1 = 19.9 µM
c1ccc2sc(SCc3ccc(-c4nnco4)cc3)nc2c1 = 11.9 µM
Cc1nc2ccccc2cc1OCc1ccc(F)cc1 = 24 µM (inactive)
Fc1ccc(COc2ccc(-c3nnco3)cc2)c(Cl)c1 = 6.4 µM
Fc1ccccc1OCCSc1nc2ccccc2o1 = 60.7 µM (inactive)
C(=C\c1nnc(-c2cccs2)o1)/c1ccccc1 = 15.9 µM
CC(=O)NS(=O)(=O)c1ccc(Nc2ccc([N+](=O)[O-])c3nonc23)cc1 = 57.9 µM (inactive)
c1ccc(-c2csc(-c3ccncc3)n2)cc1 = 12.6 µM

Reported IC50 for Brc1ccc(-c2nc(-c3ccccc3)no2)o1 was 2.54 µM

According to the records, this compound C=CCSc1nnc(-c2ccc(Cl)cc2Cl)o1 displays IC50 of 25.2 µM (inactive)

The compound O=C(/C=C/c1ccccc1)/C=C/c1ccccc1 showed IC50 equal to 16.2 µM

###

# System: C. elegans VP596 Pgst-4::GFP/RFP ratio, acrylamide, 24 h
# assay summary: inhibition of acrylamide-induced Pgst-4::GFP reporter, dose response, SKN-1 inhibitor project, whole organism, GFP/RFP fluorescence ratio, set 2, strain VP596 (AID 651563);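 also: red signal is driven by the dop-3 promoter and serves as the normalizer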
The source made the active and inactive calls.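 The calls were made as follows: active = compounds whose IC50 is 20 micromolar or lower, counted as confirmed SKN-1 reporter blockers; inactive = the rest.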
Please answer using one outcome listed in active, inactive

O=C(c1cccs1)c1ccc(-c2cccs2)s1 = active
Cc1oc(-c2ccc(-c3ccccc3)cc2)nc1CN(C)C1CCOC1 (stereo not given) = inactive
c1ccc(-c2csc(-c3cccnc3)n2)cc1 = inactive

Incoming: Call for entry COC(=O)c1cccc(CC2(C)C(=O)Nc3ccc(OC(F)(F)F)cc32)c1 (stereo not given) :
Outgoing: inactive

Incoming: Outcome logged for Brc1ccc(-c2nnc(-c3cccnc3)o2)cc1 in this assay:
Outgoing: inactive

Incoming: Hi, do you know how COc1ccc2c(c1)OC/C(=C/c1cccs1)C2=O came out in this test?
Outgoing: active

Incoming: Short answer needed: outcome of this test for O=C1c2cc(Br)ccc2OC2C=CC=CC12 (stereo not given) ?
Outgoing: inactive

###

# Tested on: C. elegans VP596 Pgst-4::GFP/RFP ratio, acrylamide, 24 h
# assay summary: inhibition of acrylamide-induced Pgst-4::GFP reporter, dose response, SKN-1 inhibitor project, whole organism, GFP/RFP fluorescence ratio, set 2, strain VP596 (AID 651563);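 also: red signal is driven by the dop-3 promoter and serves as the normalizer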
The source made the active and inactive calls.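 Rule for the calls: active = compounds whose IC50 is 20 micromolar or lower, counted as confirmed SKN-1 reporter blockers; inactive = the rest.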
Parameter call: string, one of yes (active), no (inactive)

// known answers, use as guide
Cc1c(N2C(=O)/C(=C\c3ccc(N(C)C)cc3)N(C)C2=S)c(=O)n(-c2ccccc2)n1C = yes
Cc1ccc(CSc2nnc(-c3ccco3)o2)cc1 = no
Cc1ccc(N=C/C(C(=O)C(F)(F)F)=C(\O)c2ccco2)cc1Cl = yes
O=[N+]([O-])c1ccc(COc2ccc(CN3CCCC3)cc2)cc1 = yes
CCCCOC(=O)Nc1ccc(N2CCCCC2)cc1 = no

Incoming: For Fc1ccc(-n2nnc(-c3cccnc3Cl)n2)cc1 , what call appears in the results of this test?
Outgoing: yes

Incoming: I'd appreciate the recorded outcome for Fc1ccc(-c2csc(-c3ccncc3)n2)cc1 from this test.
Outgoing: yes

Incoming: // param item: Clc1ccc2nc(-c3ccc(Br)s3)cn2c1 ; yields the recorded call
Outgoing: no

Incoming: For O=C(/C=C/Nc1ccc(F)c(Cl)c1)c1ccco1 , what call appears in the results of this test?
Outgoing: yes

Incoming: Short answer needed: outcome of this test for O=C(Nc1ccc(SC(F)F)cc1)c1ccccc1F ?
Outgoing: no

Incoming: Hi, do you know how COc1ccc(C(=O)Nc2nc(-c3cccs3)cs2)cc1 came out in this test?
Outgoing: no

Incoming: Just curious, what result did COc1cc(CNC(C)c2ccccc2)cc(Br)c1OCc1ccc(F)cc1 (stereo not drawn) get here?
Outgoing: yes

Incoming: Write down the call the test reported for this compound. Item: Fc1ccc(COc2ccc(-c3nnco3)cc2)cc1
Outgoing: yes

Incoming: How was Brc1ccc(CSc2nnc(-c3ccco3)o2)cc1 classified in this test?
Outgoing: yes

###

# System: C. elegans VP596 Pgst-4::GFP/RFP ratio, acrylamide, 24 h
# assay summary: inhibition of acrylamide-induced Pgst-4::GFP reporter, dose response, SKN-1 inhibitor project, whole organism, GFP/RFP fluorescence ratio, set 2, strain VP596 (AID 651563);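 also: red signal is driven by the dop-3 promoter and serves as the normalizer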
Activity calls are given as the source filed them.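 The calls were made as follows: active = compounds whose IC50 is 20 micromolar or lower, counted as confirmed SKN-1 reporter blockers; inactive = the rest.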
Assign a class; possible classes are active, inactive

Example entries and their recorded answers appear below.
Clc1ccc(-c2nnc(SCc3ccon3)o2)c(Cl)c1 = inactive
CC1(C)c2ccccc2C(=O)c2ccccc21 = inactive
FCCCOc1ccc(-c2nccc(-c3ccccn3)n2)cc1 = inactive
Clc1ccc(Cn2nnc(-c3ccccc3)n2)cc1 = inactive
Brc1ccc(-c2nnc(-c3ccco3)o2)cc1 = active

Incoming: What was the test verdict on CCOC(=O)Nc1nc(-c2ccc(F)cc2F)cs1 ?
Outgoing: active

Incoming: // param item: c1ccc(SCc2cc(-c3ccccc3)no2)cc1 ; yields the recorded call
Outgoing: active

Incoming: Kindly provide the recorded test outcome for the following compound: COc1cc(CNC(C)(C)CO)cc(Br)c1OCc1ccc(Cl)cc1
Outgoing: active

###

# Test system: C. elegans VP596 Pgst-4::GFP/RFP ratio, acrylamide, 24 h
# assay summary: inhibition of acrylamide-induced Pgst-4::GFP reporter, dose response, SKN-1 inhibitor project, whole organism, GFP/RFP fluorescence ratio, set 2, strain VP596 (AID 651563);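 also: red signal is driven by the dop-3 promoter and serves as the normalizer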
Active and inactive are the calls of the source.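 How the source made its calls: active means compounds whose IC50 is 20 micromolar or lower, counted as confirmed SKN-1 reporter blockers; inactive means the rest.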
The categories you may choose from are yes (1) for active, no (0) for inactive

Please review the following examples before continuing.
O=[N+]([O-])c1ccc2nc(N3CCCC3)sc2c1 = no (0)
Fc1ccc(-c2nc3ccc(Cl)cn3c2Cc2ccsc2)cc1 = no (0)
O=C(Oc1ccccc1)N1CCN(c2ccc(F)cc2)CC1 = no (0)
CCN(CC)c1ccc(/C=C2/C(=O)c3ccc(C(=O)O)cc3C2=O)cc1 = yes (1)
O=[N+]([O-])c1ccc(Nc2ccccc2)c2nonc12 = no (0)
Cc1ccc(-c2nc(-c3ccncc3)no2)c(C)c1 = no (0)
CSc1cccc(NC(=O)c2cccc3cccnc23)c1 = yes (1)
O=C(C=Cc1ccccc1)CC(c1ccccc1)N1CCOCC1 (stereo unspecified) = yes (1)

Incoming: Which outcome did this test record for the molecule COc1ccc2c(c1OC)C(=O)OC2Nc1nc(-c2ccc(-c3ccccc3)cc2)cs1 (stereo unspecified) ?
Outgoing: no (0)
